Test Name: Clearance in CD1 mouse at 10 mg/kg, iv measured upto 24 hrs by LCMS analysis
Assay type: ADME, organism-based
Measurement Conditions: in vivo
Quantity Name: clearance (mL/min/kg)
Record the value in mL/min/kg, omitting the unit from your answer.

In: Dear colleague, I am looking for the recorded clearance of the following molecule: O=C(Nc1cccnc1)c1cc(C(=O)c2c(F)cccc2Br)c[nH]1
Out: 27

====

Test Name: Permeability across basolateral to apical side in human Caco2 cells
Format: ADME, cell-based
Measurement Conditions: Caco-2, read-out: permeability
Quantity Name: Papp B→A

In: Dear colleague, I am looking for the recorded Papp B→A of the following compound: O=C(Nc1cccnc1)c1cc(C(=O)c2c(F)cccc2Br)c[nH]1
Out: > 10 ×10⁻⁶ cm/s

====

Test Name: Half life in CD1 mouse at 10 mg/kg, iv measured upto 24 hrs by LCMS analysis
Type: ADME, organism-based
Measurement Conditions: in vivo
Quantity Name: half-life (min)
Record the value in min, omitting the unit from your answer.

In: Dear colleague, I am looking for the recorded half-life of the following molecule: O=C(Nc1cccnc1)c1cc(C(=O)c2c(F)cccc2Br)c[nH]1
Out: 38

====

Test Name: Volume of distribution in CD1 mouse at 10 mg/kg, iv measured upto 24 hrs by LCMS analysis
Format: ADME, organism-based
Measurement Conditions: in vivo
Quantity Name: Vd
Just the number plus its unit, please.

In: Dear colleague, I am looking for the recorded Vd of the following molecule: O=C(Nc1cccnc1)c1cc(C(=O)c2c(F)cccc2Br)c[nH]1
Out: 1.2 L/kg

====

Test Name: AUC in CD1 mouse at 10 mg/kg, po measured upto 24 hrs by LCMS analysis
Type: ADME, organism-based
Design: dose 10 mg/kg, time < 24 hr, route oral
Measurement Conditions: in vivo
Quantity Name: AUC at 24 h

In: Dear colleague, I am looking for the recorded AUC at 24 h of the following compound: O=C(Nc1cccnc1)c1cc(C(=O)c2c(F)cccc2Br)c[nH]1
Out: 4230 ng·h/mL

====

Below, each entry is listed alongside its reported IC50.
Tested On: Mitogen-activated protein kinase 7 (Homo sapiens, UniProt Q13164)
Sequence (Q13164 whole entry, the tested form may be a part): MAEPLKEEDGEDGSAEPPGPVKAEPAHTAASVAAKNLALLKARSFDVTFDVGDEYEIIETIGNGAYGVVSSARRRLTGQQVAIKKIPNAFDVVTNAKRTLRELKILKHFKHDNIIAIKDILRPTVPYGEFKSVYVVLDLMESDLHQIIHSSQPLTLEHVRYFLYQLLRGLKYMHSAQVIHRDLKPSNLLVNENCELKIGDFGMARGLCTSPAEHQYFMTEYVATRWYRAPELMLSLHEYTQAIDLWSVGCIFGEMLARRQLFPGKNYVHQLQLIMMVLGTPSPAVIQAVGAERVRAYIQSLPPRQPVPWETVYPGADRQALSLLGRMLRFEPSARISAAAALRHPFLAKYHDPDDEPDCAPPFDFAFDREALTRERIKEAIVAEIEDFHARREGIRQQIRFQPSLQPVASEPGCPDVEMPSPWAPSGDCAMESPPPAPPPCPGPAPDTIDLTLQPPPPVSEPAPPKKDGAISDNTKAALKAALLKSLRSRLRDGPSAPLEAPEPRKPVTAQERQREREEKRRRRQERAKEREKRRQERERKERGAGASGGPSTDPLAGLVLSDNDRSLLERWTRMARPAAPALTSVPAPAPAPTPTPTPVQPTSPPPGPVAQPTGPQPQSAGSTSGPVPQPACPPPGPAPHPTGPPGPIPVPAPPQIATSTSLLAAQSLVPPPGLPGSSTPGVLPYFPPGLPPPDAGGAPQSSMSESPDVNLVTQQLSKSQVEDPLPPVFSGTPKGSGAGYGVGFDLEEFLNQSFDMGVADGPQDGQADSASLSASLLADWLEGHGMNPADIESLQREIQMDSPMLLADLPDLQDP
Test Name: Inhibition of HA-tagged ERK5 (unknown origin) coexpressed with mutationally activated EGFP-MEK5D and Gal4-MEF2D in HEK293 cells assessed as reduction in MEF2 transcription by measuring luciferase signal after 20 hrs by luciferase reporter gene assay
Format: cell-based
Record the value in µM, omitting the unit from your answer.

Some compounds with recorded IC50:
In: Dear colleague, I am looking for the recorded IC50 of the following compound: O=C(Nc1ccncc1)c1cc(C(=O)c2c(F)cccc2Br)c[nH]1
Out: 4

In: Follow-up item: O=C(Nc1ccncc1)c1cc(C(=O)c2c(F)cccc2F)c[nH]1
Out: 8

Consider now this further compound.
In: Dear colleague, I am looking for the recorded IC50 of the following compound: O=C(Nc1ccncc1)c1cc(C(=O)c2c(F)cccc2Cl)c[nH]1
Out: 2.3

====

Tested On: Mitogen-activated protein kinase 7 (Homo sapiens)
Test Name: Inhibition of ERK5 (unknown origin) using R7129 as substrate incubated for 2 hrs by IMAP fluorescence polarization analysis
Quantity Name: IC50
Just the number plus its unit, please.

In: Dear colleague, I am looking for the recorded IC50 of the following compound: O=C(NCc1ccncc1)c1cc(C(=O)c2cccc(Cl)c2Cl)c[nH]1
Out: 2 µM
